Test system: NCI-H460
Assay: NCI human tumor cell panel: NCI-H460 (Non-Small Cell Lung Cancer)
Format: cell-based
Conditions: NCI-H460, Non-Small Cell Lung Cancer, read-out: Log10 GI50 (converted)
Exercise: for every item that follows, state its recorded log10 GI50.
Record value = log10 of GI50 given in nM.

## Input Sample "O=Cc1ccc(-c2ccc(-c3ccc(C=O)s3)[se]2)s1" — what was its log10 GI50?
## Output 2.91

## Input For "O=Cc1ccc(-c2ccc(-c3cccs3)[se]2)s1" then?
## Output 2.40

## Input For "O=Cc1ccc(-c2ccc(-c3ccc[se]3)[se]2)[se]1" then?
## Output 3.35

## Input For "O=Cc1ccc(-c2ccc(-c3ccc(C=O)[se]3)s2)[se]1" then?
## Output 2.11

## Input For "O=Cc1ccc(-c2ccc(-c3ccc(C=O)[se]3)[se]2)[se]1" then?
## Output 3.25
